Molecular target: human MCH-2R (human, UniProt Q969V1 1-340)
Sequence (Q969V1 whole entry): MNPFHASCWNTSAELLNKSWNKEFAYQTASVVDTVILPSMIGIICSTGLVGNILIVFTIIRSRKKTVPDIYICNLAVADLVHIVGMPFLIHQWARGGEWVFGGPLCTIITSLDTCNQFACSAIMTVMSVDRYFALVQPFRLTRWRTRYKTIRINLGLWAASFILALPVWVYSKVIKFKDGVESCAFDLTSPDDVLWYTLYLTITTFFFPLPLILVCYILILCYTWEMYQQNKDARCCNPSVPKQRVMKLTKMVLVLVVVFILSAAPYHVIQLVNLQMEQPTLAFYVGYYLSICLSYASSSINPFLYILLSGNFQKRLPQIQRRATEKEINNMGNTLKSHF
Experiment: cell-based or functional assay
Positions of bridges follow the written chain, without caps; N, C: chain ends. No end group written: not given here.
measured_quantity: EC50, aequorin bioluminescence (nM)
Give bare numbers, in nM.

Some solved entries appear below for comparison.
binder="XCMLGRVYRPC (N-terminal acetyl; D-Cit (D-citrulline) at position 6; C-terminal amide; disulfide cycle) [SEQ. ID. NO. 14 (Ac-D-Cit^6 analog of Ac-hMCH(6-16)-NH2)]" unit_text=nM measured_result=310
binder="DFDMLRCMLGRVYRPCWQV (disulfide 7-16 (inferred)) [human MCH]" unit_text=nM measured_result=30.7

Now turn to the next binder.
Look up EC50, aequorin bioluminescence: XCMLGRVYRPC (HELM PEPTIDE1{[ac].[dA].C.M.L.G.R.V.Y.R.P.C.[am]}$PEPTIDE1,PEPTIDE1,3:R3-12:R3$$$V2.0; SMILES CSCC[C@@H]1NC(=O)[C@@H](NC(=O)[C@@H](C)NC(C)=O)CSSC[C@@H](C(N)=O)NC(=O)[C@@H]2CCCN2C(=O)[C@H](CCCNC(=N)N)NC(=O)[C@H](Cc2ccc(O)cc2)NC(=O)[C@H](C(C)C)NC(=O)[C@H](CCCNC(=N)N)NC(=O)CNC(=O)[C@H](CC(C)C)NC1=O) [SEQ. ID. NO. 6 (Ac-D-Ala^6 analog of Ac-hMCH(6-16)-NH2)]
4900
